The measurements presented in this section are drawn from ChEMBL document CHEMBL4330152.

- SYSTEM_TESTED: Carbonic anhydrase 4 (Homo sapiens) (UniProt P22748)
- Sequence (P22748 whole entry): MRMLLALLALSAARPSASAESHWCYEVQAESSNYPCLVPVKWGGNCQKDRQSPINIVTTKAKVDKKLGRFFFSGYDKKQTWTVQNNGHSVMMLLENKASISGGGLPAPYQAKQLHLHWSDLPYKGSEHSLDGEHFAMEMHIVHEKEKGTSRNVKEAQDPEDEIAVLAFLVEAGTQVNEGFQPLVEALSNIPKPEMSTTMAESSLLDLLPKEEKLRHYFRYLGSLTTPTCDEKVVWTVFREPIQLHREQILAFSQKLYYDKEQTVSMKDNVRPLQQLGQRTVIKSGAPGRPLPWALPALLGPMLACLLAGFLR
- PROTOCOL_DESCRIPTION: Activation of human CA-4 incubated for 15 mins prior to testing by stopped flow CO2 hydrase assay
MEASUREMENT_NAME: KA
// return the numeric value with its unit appended

So for COc1ccc(C2NCCc3nc[nH]c32)cc1OC (stereo unspecified) , the logged KA turned out to be 6.17 µM

So for Cc1ccc(C2NCCc3nc[nH]c32)cc1 (stereo unspecified) , the logged KA turned out to be 7.06 µM

So for COc1ccc(C2NCCc3[nH]cnc32)cc1 (stereo unspecified) , the logged KA turned out to be 6.37 µM

So for Fc1cc(F)c(F)c(C2NCCc3nc[nH]c32)c1F (stereo unspecified) , the logged KA turned out to be 0.52 µM

So for c1ccc(C2NCCc3[nH]cnc32)cc1 (stereo unspecified) , the logged KA turned out to be 63.8 µM

So for N#Cc1ccc(C2NCCc3nc[nH]c32)cc1 (stereo unspecified) , the logged KA turned out to be 5.8 µM

So for Oc1ccc(Br)cc1C1NCCc2nc[nH]c21 (stereo unspecified) , the logged KA turned out to be 10.9 µM

So for NCCc1c[nH]cn1 , the logged KA turned out to be 4.03 µM

So for Clc1ccc(C2NCCc3[nH]cnc32)cc1 (stereo unspecified) , the logged KA turned out to be 50.1 µM

So for Cc1ccc(Br)cc1C1NCCc2nc[nH]c21 (stereo unspecified) , the logged KA turned out to be 4.42 µM

So for Brc1ccccc1C1NCCc2nc[nH]c21 (stereo unspecified) , the logged KA turned out to be 4.05 µM

---

- SYSTEM_TESTED: Carbonic anhydrase 7 (Homo sapiens)
- PROTOCOL_DESCRIPTION: Activation of human CA-7 incubated for 15 mins prior to testing by stopped flow CO2 hydrase assay
MEASUREMENT_NAME: KA (µM)
Use µM as the unit, but write only the number.

So for COc1ccc(C2NCCc3nc[nH]c32)cc1OC (stereo not given) , the logged KA turned out to be 0.26

So for Cc1ccc(Br)cc1C1NCCc2nc[nH]c21 (stereo not given) , the logged KA turned out to be 0.38

So for COc1ccc(C2NCCc3[nH]cnc32)cc1 (stereo not given) , the logged KA turned out to be 0.73

So for Oc1ccc(Br)cc1C1NCCc2nc[nH]c21 (stereo not given) , the logged KA turned out to be 0.12

So for Brc1ccccc1C1NCCc2nc[nH]c21 (stereo not given) , the logged KA turned out to be 0.082
